Tested on: NCI-H460 lung
Test: NCI tumour cell line growth inhibition, 48 h
As shown below, each of these compounds has a reported TGI value.

{"COMPOUND": "COC(=O)c1ccc(/C=C2\\Cc3ccccc3C2=O)cc1", "TGI": "> 100 µM"}
{"COMPOUND": "CC(C)[C@](O)(C(=O)OCC1=CC[N+]2([O-])CC[C@@H](O)[C@@H]12)[C@H](C)O (stereo partly specified)", "TGI": "> 9540 µM"}
{"COMPOUND": "CC(=O)c1cccc(Nc2c3ccccc3nc3occc23)c1", "TGI": "> 100 µM"}
{"COMPOUND": "C=CC1(c2ccccc2Cl)N/C(=C/OCC)CO1 (stereo unspecified)", "TGI": "> 100 µM"}
{"COMPOUND": "COc1cccc(CCn2c(N)c(C(=O)O)c3ccc([N+](=O)[O-])cc3c2=O)c1", "TGI": "> 100 µM"}
{"COMPOUND": "COc1cc2c(cc1OC)C(=O)Cc1ccc3c(c1CNCC2)OCO3", "TGI": "> 100 µM"}

The measurements presented in this section are drawn from PubChem BioAssay (NCI).
